Entry source: patent US6444617B1

Form field: Phytotoxicity So (one value per entry).
system: soybean plant (So); assay: Test Example 3: phytotoxicity to upland crop plants, treatment before emergence; assay type: in vivo; settings: dosage 5 kg/ha

smiles_string=CCCNC(=O)c1nc2c(cc1C(=O)Nc1c(CC)ccc(Cl)c1CC)ncn2C assay_value="4 (Crop-killing rate is 90-99%.)"
smiles_string=CCCNC(=O)c1nc2nc(C)n(C)c2cc1C(=O)Nc1c(CC)ccc(Cl)c1CC assay_value="5 (Crop-killing rate is 100%.)"
smiles_string=Cc1c(Cl)cccc1NC(=O)c1cc2c(nc1C(=O)NCC(C)C)SCCC2 assay_value="5 (Crop-killing rate is 100%.)"

Phytotoxicity So reading for `CCCNC(=O)c1nc2c(cc1C(=O)Nc1c(CC)ccc(Cl)c1CC)COCC2` : 5 (Crop-killing rate is 100%.)

###

test system: soybean plant (So); assay: Test Example 3: phytotoxicity to upland crop plants, treatment before emergence; format: in vivo; settings: dosage 5 kg/ha
ATTRIBUTE_MEASURED: Phytotoxicity So

These recorded examples may help you get a feel for the data.
smiles_string=CCCNC(=O)c1nc2c(cc1C(=O)Nc1c(CC)ccc(Cl)c1CC)CSCC2 assay_value="5 (Crop-killing rate is 100%.)"
smiles_string=CCCNC(=O)c1nc2c(cc1C(=O)Nc1c(CC)ccc(Cl)c1CC)CCCS2 assay_value="4 (Crop-killing rate is 90-99%.)"

Phytotoxicity So reading for `CCCNC(=O)c1nc2c(cc1C(=O)Nc1cccc(Cl)c1C)OCCC2` : 4 (Crop-killing rate is 90-99%.)

Phytotoxicity So reading for `CCCNC(=O)c1nc2cnn(C)c2cc1C(=O)Nc1c(CC)ccc(Cl)c1CC` : 5 (Crop-killing rate is 100%.)

Phytotoxicity So reading for `CCCNC(=O)c1nc2ncn(C)c2cc1C(=O)Nc1c(CC)ccc(Cl)c1CC` : 5 (Crop-killing rate is 100%.)

###

Tested on: bird's eye speedwell (Veronica persica Poir.), Vp
Assay: Test Example 4: herbicidal effect on upland weeds after emergence
Assay type: in vivo
Details: dosage 5 kg/ha; sprayed after emergence; judged 14 days after treatment
Method: Herbicidal Effect on Upland Weeds After Emergence Polyethylene-made vats having a size of 10 cm (length)×20 cm (width)×5 cm (height) were filled with soil, sown with seeds of the following noxious upland weeds and with seeds of soybean plant and wheat as upland crop plants, and then covered with soil. […] Fourteen days after the treatment, the herbicidal effect was investigated, from which weed-killing rate was calculated in the same manner as in Test Example 1 and the results were judged. […]
Form field: Herbicidal effect Vp (one value per entry).

Herbicidal effect Vp reading for Cc1c(Cl)cccc1NC(=O)c1cc2c(C)noc2nc1C(=O)NC1CCCC1 [compound 1085] : 5 (Weed-killing rate is 100%.)

Herbicidal effect Vp reading for CCCNC(=O)c1nc2ccc(OC)cc2cc1C(=O)Nc1c(CC)ccc(Cl)c1CC [compound 290] : 5 (Weed-killing rate is 100%.)

Herbicidal effect Vp reading for CCc1ccc(Cl)c(CC)c1NC(=O)c1cc2ccccc2nc1C(=O)NCC(C)(C)C [359-5] : 5 (Weed-killing rate is 100%.)

Herbicidal effect Vp reading for CCCNC(=O)c1nc2ccoc2cc1C(=O)Nc1c(CC)ccc(Cl)c1CC [compound 847] : 5 (Weed-killing rate is 100%.)

Herbicidal effect Vp reading for CCc1ccc(Cl)c(CC)c1NC(=O)c1cc2cc(OC)c(OC)cc2nc1C(=O)NCC(C)C [compound 310] : 3 (Weed-killing rate is 70-89%.)

Herbicidal effect Vp reading for CCCNC(=O)c1cc2c(nc1C(=O)Nc1c(CC)ccc(Cl)c1CC)[S+]([O-])CC2 (centres unmarked) [Compound No. 1028] : 5 (Weed-killing rate is 100%.)

Herbicidal effect Vp reading for CCCNC(=O)c1nc2occc2cc1C(=O)Nc1c(CC)ccc(Cl)c1CC [compound 775] : 5 (Weed-killing rate is 100%.)

Herbicidal effect Vp reading for CCCNC(=O)c1nc2c(cc1C(=O)Nc1c(CC)ccc(Cl)c1CC)c(C)nn2C [compound 1112] : 5 (Weed-killing rate is 100%.)

Herbicidal effect Vp reading for CCCNC(=O)c1nc2cnn(C)c2cc1C(=O)Nc1c(CC)ccc(Cl)c1CC [compound 1173] : 5 (Weed-killing rate is 100%.)

Herbicidal effect Vp reading for CCCNC(=O)c1nc2c(cc1C(=O)Nc1c(CC)ccc(Cl)c1CC)CCO2 [compound 919] : 5 (Weed-killing rate is 100%.)

Herbicidal effect Vp reading for CCCNC(=O)c1nc2c(cc1C(=O)Nc1cccc(Cl)c1C)OCCC2 [compound 498] : 5 (Weed-killing rate is 100%.)

Herbicidal effect Vp reading for CCCNC(=O)c1nc2c(cc1C(=O)Nc1c(CC)ccc(Cl)c1CC)COCC2 [Compound No. 462] : 5 (Weed-killing rate is 100%.)

Herbicidal effect Vp reading for CCCNC(=O)c1nc2c(cnn2C)cc1C(=O)Nc1c(CC)ccc(Cl)c1CC [compound 1088] : 5 (Weed-killing rate is 100%.)

Herbicidal effect Vp reading for CCNC(=O)c1nc2ccc(O)cc2cc1C(=O)Nc1c(CC)ccc(Cl)c1CC [compound 275] : 4 (Weed-killing rate is 90-99%.)

Herbicidal effect Vp reading for CCNC(=O)c1nc2ncccc2cc1C(=O)Nc1c(CC)ccc(Cl)c1CC [Compound No. 360] : 5 (Weed-killing rate is 100%.)

Herbicidal effect Vp reading for CCCNC(=O)c1nc2c(ccn2C)cc1C(=O)Nc1c(CC)ccc(Cl)c1CC [compound 824] : 5 (Weed-killing rate is 100%.)

Herbicidal effect Vp reading for CCCNC(=O)c1nc2cc(F)ccc2cc1C(=O)Nc1c(CC)ccc(Cl)c1CC [Compound No. 158] : 5 (Weed-killing rate is 100%.)
